Target: SYK (human) (UniProt P43405)
Experiment: Caliper, Mobility shift assay off-chip
Details: compound 0.02 µM
Measured parameter: inhibition (%)
Express it in %; write the number only.

Consider the following illustrative entries.
Structure as smiles	Unit of measurement	inhibition
COc1cc2c(Oc3ccc4[nH]c(C)cc4c3F)ncnc2cc1OCCCN1CCCC1	%	-4.7
CNC(=O)c1cc(Oc2ccc(NC(=O)Nc3ccc(Cl)c(C(F)(F)F)c3)cc2)ccn1	%	-7.3
Cc1ccc(Nc2nccc(N(C)c3ccc4c(C)n(C)nc4c3)n2)cc1S(N)(=O)=O	%	4.4

Please examine the following record next.
input: Look at this compound and give its reported inhibition. CNC(=O)c1ccccc1Sc1ccc2c(/C=C/c3ccccn3)n[nH]c2c1
output: -8.9

---

Below, each of the compounds is paired with its reported inhibition value.
Target: PASK (human)
Test: Caliper, Mobility shift assay off-chip
Conditions: compound 0.2 µM
Express it in %; write the number only.

Consider the following illustrative entries.
Structure as smiles	Target entity	inhibition [%]
Cc1ccc(Nc2nccc(N(C)c3ccc4c(C)n(C)nc4c3)n2)cc1S(N)(=O)=O	PASK (human)	3.1
CNC(=O)c1cc(Oc2ccc(NC(=O)Nc3ccc(Cl)c(C(F)(F)F)c3)cc2)ccn1	PASK (human)	1.7
COc1cc2c(Oc3ccc4[nH]c(C)cc4c3F)ncnc2cc1OCCCN1CCCC1	PASK (human)	0.3

input: Look at this compound and give its reported inhibition. CCN(CC)CCNC(=O)c1c(C)[nH]c(/C=C2\C(=O)Nc3ccc(F)cc32)c1C
output: -4

---

Below, each of the compounds is paired with its reported inhibition value.
Target: MAPK11 (human) (UniProt Q15759)
Sequence (Q15759 whole entry, looked up): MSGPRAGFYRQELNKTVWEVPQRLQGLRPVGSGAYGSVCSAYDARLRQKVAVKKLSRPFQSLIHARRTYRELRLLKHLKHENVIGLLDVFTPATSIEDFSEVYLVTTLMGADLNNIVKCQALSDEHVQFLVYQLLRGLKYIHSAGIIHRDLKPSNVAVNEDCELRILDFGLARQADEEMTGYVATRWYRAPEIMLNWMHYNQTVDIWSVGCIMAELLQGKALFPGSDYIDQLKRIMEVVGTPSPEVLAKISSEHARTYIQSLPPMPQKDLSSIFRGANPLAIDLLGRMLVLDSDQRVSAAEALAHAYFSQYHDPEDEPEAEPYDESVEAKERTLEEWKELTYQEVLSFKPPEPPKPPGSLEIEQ
Assay: Caliper, Mobility shift assay off-chip
Details: compound 0.2 µM
Express it in %; write the number only.

Consider the following illustrative entries.
Structure as smiles	inhibition [%]
COc1cc2c(Oc3ccc4[nH]c(C)cc4c3F)ncnc2cc1OCCCN1CCCC1	-3.5
CCN(CC)CCNC(=O)c1c(C)[nH]c(/C=C2\C(=O)Nc3ccc(F)cc32)c1C	-1.4
Cc1ccc(Nc2nccc(N(C)c3ccc4c(C)n(C)nc4c3)n2)cc1S(N)(=O)=O	0.9

input: Lab note: need inhibition with MAPK11 (human) (UniProt Q15759) for entry CNC(=O)c1cc(Oc2ccc(NC(=O)Nc3ccc(Cl)c(C(F)(F)F)c3)cc2)ccn1 , please look it up.
output: 62.3

---

Target: TBK1 (human) (UniProt Q9UHD2)
Sequence (Q9UHD2 whole entry, looked up): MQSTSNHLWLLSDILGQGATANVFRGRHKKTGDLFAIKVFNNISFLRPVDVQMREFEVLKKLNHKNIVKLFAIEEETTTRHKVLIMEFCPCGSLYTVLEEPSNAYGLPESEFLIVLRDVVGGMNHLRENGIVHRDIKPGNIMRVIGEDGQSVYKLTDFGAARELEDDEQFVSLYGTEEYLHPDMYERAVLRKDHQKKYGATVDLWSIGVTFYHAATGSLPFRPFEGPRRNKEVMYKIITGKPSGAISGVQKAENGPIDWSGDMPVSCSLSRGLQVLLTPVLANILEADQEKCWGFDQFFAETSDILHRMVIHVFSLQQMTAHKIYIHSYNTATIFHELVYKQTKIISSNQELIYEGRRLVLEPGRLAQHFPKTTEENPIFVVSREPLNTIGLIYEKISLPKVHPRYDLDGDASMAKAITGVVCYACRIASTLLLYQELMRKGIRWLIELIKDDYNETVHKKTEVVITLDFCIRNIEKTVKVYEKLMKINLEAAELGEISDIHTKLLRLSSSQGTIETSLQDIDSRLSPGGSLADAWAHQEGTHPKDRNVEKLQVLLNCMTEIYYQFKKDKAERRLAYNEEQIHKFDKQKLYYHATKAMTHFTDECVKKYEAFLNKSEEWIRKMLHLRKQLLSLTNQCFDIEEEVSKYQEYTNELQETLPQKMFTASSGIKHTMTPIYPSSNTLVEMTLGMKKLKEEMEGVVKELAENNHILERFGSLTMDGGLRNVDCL
Test: Caliper, Mobility shift assay off-chip
Conditions: compound 0.02 µM
Measured parameter: inhibition (%)
Express it in %; write the number only.

Consider the following illustrative entries.
Structure as smiles	Unit of measurement	inhibition
CNC(=O)c1cc(Oc2ccc(NC(=O)Nc3ccc(Cl)c(C(F)(F)F)c3)cc2)ccn1	%	-1.4
CNC(=O)c1ccccc1Sc1ccc2c(/C=C/c3ccccn3)n[nH]c2c1	%	-2
Cc1ccc(Nc2nccc(N(C)c3ccc4c(C)n(C)nc4c3)n2)cc1S(N)(=O)=O	%	-0.2

Please examine the following record next.
input: Look at this molecule and give its reported inhibition. COc1cc2c(Oc3ccc4[nH]c(C)cc4c3F)ncnc2cc1OCCCN1CCCC1
output: -1.8

---

Target: ROCK2 (human)
Experiment: Caliper, Mobility shift assay off-chip
Conditions: compound 0.02 µM
Below, each of the molecules is paired with its reported inhibition value.
Express it in %; write the number only.

Consider the following illustrative entries.
Structure as smiles	Target entity	inhibition / %
CNC(=O)c1cc(Oc2ccc(NC(=O)Nc3ccc(Cl)c(C(F)(F)F)c3)cc2)ccn1	ROCK2 (human)	-2
COc1cc2c(Oc3ccc4[nH]c(C)cc4c3F)ncnc2cc1OCCCN1CCCC1	ROCK2 (human)	-2.2
CNC(=O)c1ccccc1Sc1ccc2c(/C=C/c3ccccn3)n[nH]c2c1	ROCK2 (human)	-4.7

Please examine the following record next.
input: Look at this molecule and give its reported inhibition. Cc1ccc(Nc2nccc(N(C)c3ccc4c(C)n(C)nc4c3)n2)cc1S(N)(=O)=O
output: -3.7

---

Molecular target: CSNK2A1 (human) (UniProt P68400)
Sequence (P68400 whole entry, looked up): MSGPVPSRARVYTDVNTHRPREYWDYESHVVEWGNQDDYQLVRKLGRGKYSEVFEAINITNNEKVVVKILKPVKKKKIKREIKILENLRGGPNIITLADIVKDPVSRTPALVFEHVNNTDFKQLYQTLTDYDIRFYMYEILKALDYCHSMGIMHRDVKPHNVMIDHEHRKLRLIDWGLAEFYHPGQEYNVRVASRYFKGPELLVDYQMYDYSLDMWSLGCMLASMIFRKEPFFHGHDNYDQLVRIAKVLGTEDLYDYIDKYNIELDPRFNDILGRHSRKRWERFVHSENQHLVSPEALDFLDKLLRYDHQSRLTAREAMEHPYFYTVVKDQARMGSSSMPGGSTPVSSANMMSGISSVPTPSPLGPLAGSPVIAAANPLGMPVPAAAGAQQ
Experiment: Caliper, Mobility shift assay off-chip
Details: compound 0.2 µM
Below, each of the molecules is paired with its reported inhibition value.
Answer shape: numeric part, then the unit.

Structure as smiles	inhibition
CCN(CC)CCNC(=O)c1c(C)[nH]c(/C=C2\C(=O)Nc3ccc(F)cc32)c1C	-0.4%
Cc1ccc(Nc2nccc(N(C)c3ccc4c(C)n(C)nc4c3)n2)cc1S(N)(=O)=O	-2.4%
COc1cc2c(Oc3ccc4[nH]c(C)cc4c3F)ncnc2cc1OCCCN1CCCC1	-0.5%

input: Look at this molecule and give its reported inhibition. CNC(=O)c1cc(Oc2ccc(NC(=O)Nc3ccc(Cl)c(C(F)(F)F)c3)cc2)ccn1
output: 0.3%

---

Target: UniProtKB P24723
Sequence (P24723 whole entry, looked up): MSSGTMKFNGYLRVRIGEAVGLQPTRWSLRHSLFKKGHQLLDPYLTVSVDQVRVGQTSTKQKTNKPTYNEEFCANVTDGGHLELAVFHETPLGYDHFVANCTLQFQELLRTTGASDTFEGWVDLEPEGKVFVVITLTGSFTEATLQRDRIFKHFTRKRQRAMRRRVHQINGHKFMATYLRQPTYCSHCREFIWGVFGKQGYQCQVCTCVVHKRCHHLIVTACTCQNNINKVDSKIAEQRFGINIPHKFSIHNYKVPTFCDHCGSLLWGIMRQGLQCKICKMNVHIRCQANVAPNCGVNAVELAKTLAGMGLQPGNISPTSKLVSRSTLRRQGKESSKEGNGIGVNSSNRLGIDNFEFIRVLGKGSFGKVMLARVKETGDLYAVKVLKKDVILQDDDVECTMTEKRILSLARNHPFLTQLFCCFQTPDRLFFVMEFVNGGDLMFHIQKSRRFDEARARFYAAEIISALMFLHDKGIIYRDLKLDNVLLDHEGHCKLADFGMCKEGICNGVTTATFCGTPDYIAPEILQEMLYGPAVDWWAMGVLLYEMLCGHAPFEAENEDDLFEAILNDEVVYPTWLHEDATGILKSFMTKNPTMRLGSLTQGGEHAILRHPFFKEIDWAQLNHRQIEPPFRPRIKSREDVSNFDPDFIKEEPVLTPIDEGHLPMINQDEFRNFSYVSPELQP
Experiment: Caliper, Mobility shift assay off-chip
Details: compound 0.02 µM
Measured parameter: inhibition (%)
Express it in %; write the number only.

input: Lab note: need inhibition with UniProtKB P24723 for entry Cc1ccc(Nc2nccc(N(C)c3ccc4c(C)n(C)nc4c3)n2)cc1S(N)(=O)=O , please look it up.
output: 6.7

input: Lab note: need inhibition with UniProtKB P24723 for entry CNC(=O)c1ccccc1Sc1ccc2c(/C=C/c3ccccn3)n[nH]c2c1 , please look it up.
output: 6.2

input: Lab note: need inhibition with UniProtKB P24723 for entry COc1cc2c(Oc3ccc4[nH]c(C)cc4c3F)ncnc2cc1OCCCN1CCCC1 , please look it up.
output: 6

input: Lab note: need inhibition with UniProtKB P24723 for entry CNC(=O)c1cc(Oc2ccc(NC(=O)Nc3ccc(Cl)c(C(F)(F)F)c3)cc2)ccn1 , please look it up.
output: 2.1

---

Molecular target: UniProtKB P78362
Sequence (P78362 whole entry, looked up): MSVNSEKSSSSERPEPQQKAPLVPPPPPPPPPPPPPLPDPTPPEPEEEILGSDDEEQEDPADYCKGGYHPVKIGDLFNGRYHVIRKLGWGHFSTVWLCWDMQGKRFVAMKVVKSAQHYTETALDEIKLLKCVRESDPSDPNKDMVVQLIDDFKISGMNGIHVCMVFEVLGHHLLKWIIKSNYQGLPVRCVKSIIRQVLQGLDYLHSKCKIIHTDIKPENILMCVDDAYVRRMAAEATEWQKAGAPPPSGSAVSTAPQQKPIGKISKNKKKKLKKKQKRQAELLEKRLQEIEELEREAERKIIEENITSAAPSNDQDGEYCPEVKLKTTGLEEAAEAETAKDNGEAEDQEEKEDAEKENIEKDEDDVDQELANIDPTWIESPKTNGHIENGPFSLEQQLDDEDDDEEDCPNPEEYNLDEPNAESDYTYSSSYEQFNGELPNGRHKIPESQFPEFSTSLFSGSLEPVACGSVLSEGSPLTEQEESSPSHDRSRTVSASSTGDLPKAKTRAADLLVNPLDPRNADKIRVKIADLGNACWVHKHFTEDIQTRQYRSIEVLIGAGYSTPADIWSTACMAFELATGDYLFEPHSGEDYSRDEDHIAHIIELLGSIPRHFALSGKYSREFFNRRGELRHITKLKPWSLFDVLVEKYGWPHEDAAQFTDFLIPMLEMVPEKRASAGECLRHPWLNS
Assay: Caliper, Mobility shift assay off-chip
Details: compound 0.2 µM
Below, each of the compounds is paired with its reported inhibition value.
Express it in %; write the number only.

Consider the following illustrative entries.
Structure as smiles	inhibition [%]
CNC(=O)c1cc(Oc2ccc(NC(=O)Nc3ccc(Cl)c(C(F)(F)F)c3)cc2)ccn1	-6.5
CCN(CC)CCNC(=O)c1c(C)[nH]c(/C=C2\C(=O)Nc3ccc(F)cc32)c1C	-0.5
COc1cc2c(Oc3ccc4[nH]c(C)cc4c3F)ncnc2cc1OCCCN1CCCC1	-5.3

Please examine the following record next.
input: Look at this compound and give its reported inhibition. Cc1ccc(Nc2nccc(N(C)c3ccc4c(C)n(C)nc4c3)n2)cc1S(N)(=O)=O
output: -3.2

---

Biological target: PLK2 (human)
Assay: IMAP-FP
Details: compound 0.2 µM
Below, each of the compounds is paired with its reported inhibition value.
Express it in %; write the number only.

Structure as smiles	inhibition / %
COc1cc2c(Oc3ccc4[nH]c(C)cc4c3F)ncnc2cc1OCCCN1CCCC1	-1.6

input: Look at this compound and give its reported inhibition. CNC(=O)c1cc(Oc2ccc(NC(=O)Nc3ccc(Cl)c(C(F)(F)F)c3)cc2)ccn1
output: -2.1

input: Look at this compound and give its reported inhibition. Cc1ccc(Nc2nccc(N(C)c3ccc4c(C)n(C)nc4c3)n2)cc1S(N)(=O)=O
output: -0.8

input: Look at this compound and give its reported inhibition. CCN(CC)CCNC(=O)c1c(C)[nH]c(/C=C2\C(=O)Nc3ccc(F)cc32)c1C
output: -4.7

---

Target: SPHK1 (human)
Test: Caliper, Mobility shift assay off-chip
Details: compound 0.02 µM
Measured parameter: inhibition (%)
Express it in %; write the number only.

Structure as smiles	Target entity	inhibition (%)
Cc1ccc(Nc2nccc(N(C)c3ccc4c(C)n(C)nc4c3)n2)cc1S(N)(=O)=O	SPHK1 (human)	-4.8

input: Look at this compound and give its reported inhibition. CNC(=O)c1ccccc1Sc1ccc2c(/C=C/c3ccccn3)n[nH]c2c1
output: -4.1

input: Look at this compound and give its reported inhibition. COc1cc2c(Oc3ccc4[nH]c(C)cc4c3F)ncnc2cc1OCCCN1CCCC1
output: -5.6

input: Look at this compound and give its reported inhibition. CNC(=O)c1cc(Oc2ccc(NC(=O)Nc3ccc(Cl)c(C(F)(F)F)c3)cc2)ccn1
output: -3.1

---

Molecular target: CAMK4 (human) (UniProt Q16566)
Sequence (Q16566 whole entry, looked up): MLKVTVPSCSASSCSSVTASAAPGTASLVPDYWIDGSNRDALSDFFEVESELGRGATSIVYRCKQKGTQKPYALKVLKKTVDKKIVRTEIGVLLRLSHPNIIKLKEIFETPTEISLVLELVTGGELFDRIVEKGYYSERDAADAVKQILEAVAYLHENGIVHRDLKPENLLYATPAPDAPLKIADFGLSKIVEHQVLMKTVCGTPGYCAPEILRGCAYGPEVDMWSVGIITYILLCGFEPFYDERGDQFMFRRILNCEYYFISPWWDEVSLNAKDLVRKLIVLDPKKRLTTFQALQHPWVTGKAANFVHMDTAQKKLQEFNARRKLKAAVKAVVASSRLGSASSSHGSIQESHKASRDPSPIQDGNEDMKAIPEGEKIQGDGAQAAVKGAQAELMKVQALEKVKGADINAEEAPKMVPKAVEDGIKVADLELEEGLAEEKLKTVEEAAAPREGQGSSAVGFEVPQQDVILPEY
Assay: Caliper, Mobility shift assay off-chip
Conditions: compound 0.02 µM
Measured parameter: inhibition
Answer shape: numeric part, then the unit.

Consider the following illustrative entries.
Structure as smiles	Target entity	Measured
Cc1ccc(Nc2nccc(N(C)c3ccc4c(C)n(C)nc4c3)n2)cc1S(N)(=O)=O	CAMK4 (human) (UniProt Q16566)	-2.8%
COc1cc2c(Oc3ccc4[nH]c(C)cc4c3F)ncnc2cc1OCCCN1CCCC1	CAMK4 (human) (UniProt Q16566)	-4%
CNC(=O)c1cc(Oc2ccc(NC(=O)Nc3ccc(Cl)c(C(F)(F)F)c3)cc2)ccn1	CAMK4 (human) (UniProt Q16566)	-8.3%

Please examine the following record next.
input: Look at this compound and give its reported inhibition. CNC(=O)c1ccccc1Sc1ccc2c(/C=C/c3ccccn3)n[nH]c2c1
output: -4.7%
